# target-desc: cloned human or rodent CNS receptors, channels, and transporters (PDSP panel) (Homo sapiens, UniProt P28223)
# Construct: expressed in transfected cells
# Sequence (P28223 whole entry): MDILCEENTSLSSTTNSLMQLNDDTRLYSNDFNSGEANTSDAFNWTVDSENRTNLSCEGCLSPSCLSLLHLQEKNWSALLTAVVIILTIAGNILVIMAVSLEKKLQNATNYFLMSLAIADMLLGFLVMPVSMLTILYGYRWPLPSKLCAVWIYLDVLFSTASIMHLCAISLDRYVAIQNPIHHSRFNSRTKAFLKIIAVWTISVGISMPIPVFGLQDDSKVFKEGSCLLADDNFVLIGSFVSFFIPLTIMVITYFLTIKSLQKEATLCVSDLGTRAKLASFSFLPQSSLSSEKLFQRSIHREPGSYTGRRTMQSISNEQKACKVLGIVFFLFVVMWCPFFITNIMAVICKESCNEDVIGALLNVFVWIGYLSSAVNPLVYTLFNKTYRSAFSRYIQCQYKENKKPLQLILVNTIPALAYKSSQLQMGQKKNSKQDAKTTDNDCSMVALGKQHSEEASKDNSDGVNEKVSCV
# assay-protocol: PDSP GPCR panel primary binding assays at 10 μM
# stated-conditions: 5-HT2A; primary assay, replicate 2
Each record here notes measured Inhibition 2.
Record the value in %, omitting the unit from your answer.

Use the examples below as a reference point.
{"columns": ["molecule", "measured-result"],
 "data": [
  ["CC(=O)N1CCC(NC(=O)NC23CC4CC(CC(C4)C2)C3)CC1 [UNC10302683A, AR9281]", 1.29],
  ["CCC(=O)N1CCC(NC(=O)Nc2ccc(OC(F)(F)F)cc2)CC1 [UNC10302681A, TPPU]", -4.96],
  ["CNc1nc(C)nc(N[C@H]2CCC[C@@H](C(=O)NCc3ccc(C#N)cc3C(F)(F)F)C2)n1 [UNC10302679A, GSK2256294A]", -8.74]
]}

// below: Inhibition 2 requested for another molecule
Req: Entry O=C(NC1CC1)C(=O)C(Cc1ccccc1)NC(=O)[C@H]1CCC(=O)N1Cc1ccccc1 (stereo partly shown) [UNC10302676A, ABT-957 (Alicapistat)] : reported Inhibition 2 = ?
Resp: 7.05

Values compiled from paper PMC9005681.
